The reported measurements were obtained from PubChem BioAssay (EPA / NIEHS).

read-out: Monokine induced gamma interferon (MIG), CXCL9 (gene 4283); assay: BSK_hDFCGF_MIG: BioMAP Diversity Plus: hDFCGF Assay for Monokine induced gamma interferon (MIG) Biomarker Activity (AID 2283063); details: primary human foreskin fibroblasts; actives raise or lower the signal
Active and inactive are the calls of the source. How the source made its calls: active means hit-call score of the fitted dose curve at least 0.9, where 1 is the maximum; inactive means score below 0.9.
Use one of these outcomes when replying: class 1 (active), class 0 (inactive)

Here are 10 compounds together with their reported answers.
>>> group("CCC(C)(C)C(=O)OC1=C(c2ccc(Cl)cc2Cl)C(=O)OC12CCCCC2")
"class 1"
>>> group("CCOC1Oc2ccc(OS(C)(=O)=O)cc2C1(C)C (stereo unspecified)")
"class 0"
>>> group("CCOCN(C(=O)CCl)c1c(C)cccc1CC")
"class 1"
>>> group("C[C@H]1[C@H](c2ccc(Cl)cc2)SC(=O)N1C(=O)NC1CCCCC1")
"class 0"
>>> group("CC(C)N(C(=O)COc1nnc(C(F)(F)F)s1)c1ccc(F)cc1")
"class 0"
>>> group("COc1nn(CSP(=S)(OC)OC)c(=O)s1")
"class 0"
>>> group("O=C(NC(=O)c1c(F)cccc1F)Nc1ccc(OC(F)(F)C(F)OC(F)(F)F)c(Cl)c1 (stereo unspecified)")
"class 0"
>>> group("Clc1ccccc1-c1nnc(-c2ccccc2Cl)nn1")
"class 0"
>>> group("CCCN(CCC)c1c([N+](=O)[O-])cc(C(F)(F)F)cc1[N+](=O)[O-]")
"class 0"
>>> group("O=S1OCC2C(CO1)C1(Cl)C(Cl)=C(Cl)C2(Cl)C1(Cl)Cl (stereo unspecified)")
"class 1"

## Task What is the recorded call for this compound in the test? `CCCN(CCOc1c(Cl)cc(Cl)cc1Cl)C(=O)n1ccnc1`
## Result class 0
